Value source: patent US11174245B2

Target: EGFR wt (Homo sapiens (Human), UniProt P00533)
Sequence (P00533 25-1210): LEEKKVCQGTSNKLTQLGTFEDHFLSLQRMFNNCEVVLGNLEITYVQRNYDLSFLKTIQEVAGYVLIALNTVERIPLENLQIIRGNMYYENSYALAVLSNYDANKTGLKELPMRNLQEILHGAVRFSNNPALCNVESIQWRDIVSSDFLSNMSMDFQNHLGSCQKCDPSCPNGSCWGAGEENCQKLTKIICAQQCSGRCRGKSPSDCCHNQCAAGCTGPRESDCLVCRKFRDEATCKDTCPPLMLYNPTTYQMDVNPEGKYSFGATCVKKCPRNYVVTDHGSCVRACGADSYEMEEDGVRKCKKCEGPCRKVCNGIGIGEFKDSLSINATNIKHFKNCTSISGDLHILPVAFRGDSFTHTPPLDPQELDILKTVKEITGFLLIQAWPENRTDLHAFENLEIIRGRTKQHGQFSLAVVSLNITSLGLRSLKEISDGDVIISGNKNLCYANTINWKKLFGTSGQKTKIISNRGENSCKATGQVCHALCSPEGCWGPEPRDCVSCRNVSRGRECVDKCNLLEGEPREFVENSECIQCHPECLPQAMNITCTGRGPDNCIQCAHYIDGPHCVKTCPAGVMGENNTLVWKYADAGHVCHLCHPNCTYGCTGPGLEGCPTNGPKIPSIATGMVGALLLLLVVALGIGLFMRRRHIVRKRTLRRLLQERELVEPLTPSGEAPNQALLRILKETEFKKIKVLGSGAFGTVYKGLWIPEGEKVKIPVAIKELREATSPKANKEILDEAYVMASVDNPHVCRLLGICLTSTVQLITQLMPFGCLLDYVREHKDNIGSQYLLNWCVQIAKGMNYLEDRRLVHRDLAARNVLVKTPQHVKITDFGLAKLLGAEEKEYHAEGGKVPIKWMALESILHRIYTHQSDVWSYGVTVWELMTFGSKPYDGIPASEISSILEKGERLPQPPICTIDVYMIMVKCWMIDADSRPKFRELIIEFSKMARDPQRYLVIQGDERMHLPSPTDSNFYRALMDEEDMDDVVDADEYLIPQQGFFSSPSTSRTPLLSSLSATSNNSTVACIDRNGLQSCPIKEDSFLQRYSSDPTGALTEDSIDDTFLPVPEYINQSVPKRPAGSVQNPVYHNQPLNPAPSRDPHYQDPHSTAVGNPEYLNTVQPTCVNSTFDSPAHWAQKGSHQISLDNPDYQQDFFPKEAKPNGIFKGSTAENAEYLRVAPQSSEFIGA
Assay: Biochemical EGFR inhibition assay (TR-FRET, poly-GT substrate), EGFR wt
Conditions: read-out: wt (100 μM ATP) IC50; 100 μM ATP
Listed here: items and their measured log10(IC50).
Short version: log10 scale, IC50, µM.

Query: So what log10(IC50) did Cc1ccc2c(c1)[nH]/c(=N\C(=O)c1ccnc(-c3cnn4cccnc34)c1)n2[C@H]1CC[C@@H](O)CC1 get with EGFR wt (Homo sapiens (Human), UniProt P00533)?
Response: 0.65

Query: So what log10(IC50) did COCCCNc1ccc2c(c1)[nH]/c(=N\C(=O)c1ccnc(-c3cccnc3)c1)n2CC(C)(C)O get with EGFR wt (Homo sapiens (Human), UniProt P00533)?
Response: 1.32

Query: So what log10(IC50) did CN1CCC(c2ccc3c(c2)[nH]/c(=N\C(=O)c2ccnc(-c4cnn(C)c4)c2)n3CC(C)(C)O)CC1 get with EGFR wt (Homo sapiens (Human), UniProt P00533)?
Response: -0.06

Query: So what log10(IC50) did Cn1cc(-c2cc(C(=O)/N=c3\[nH]c4ccccc4n3C3CCCC3)ccn2)cn1 get with EGFR wt (Homo sapiens (Human), UniProt P00533)?
Response: 0.61

Query: So what log10(IC50) did O=C(/N=c1\[nH]c2ccccc2n1[C@H]1CC[C@@H](O)CC1)c1ccnc(-c2cnn3cccnc23)c1 get with EGFR wt (Homo sapiens (Human), UniProt P00533)?
Response: 0.38

Query: So what log10(IC50) did CN1CCN(c2ccc3c(c2)[nH]/c(=N\C(=O)c2ccnc(-c4cnn(C)c4)c2)n3CC(C)(C)O)CC1 get with EGFR wt (Homo sapiens (Human), UniProt P00533)?
Response: 0.75

Query: So what log10(IC50) did Cn1cc(-c2cc(C(=O)/N=c3\[nH]c4ccccc4n3[C@H]3CC[C@H](O)C3)ccn2)cn1 get with EGFR wt (Homo sapiens (Human), UniProt P00533)?
Response: 0.58
